Parameter: EC50 (read off the curve). Scope: all listed entries.
Test System: T1, human CD4, cell-expressed (human, UniProt P01730 26-458)
T1 construct: whole, on cells
Assay Explanation: flow cytometry on activated T cells of donor D838 (very high CD4), lower left panel
Reported Property: EC50 (read off the curve)

>  <Binder>
IL23R#20-35GS-CD4#8 (bispecific antibody, also called BI#43; T023200043) EVQLVESGGGLVQAGGSLRLSCAASGRTFSSYAMGWFRQAPGKDREFVAAISWIGESTYYADSVKGRFTISRDNAKNTVYLRMNSLKPEDTAVYYCAADLYYTAYVAAADEYDYWGQGTLVTVSSGGGGSGGGGSGGGGSGGGGSGGGGSGGGGSGGGGSEVQLVESGGGSVQPGGSLTLSCGTSGRTFNVMGWFRQAPGKEREFVAAVRWSSTGIYYTQYADSVKSRFTISRDNAKNTVYLEMNSLKPEDTAVYYCAADTYNSNPARWDGYDFRGQGTLVTVSS

>  <Measured Result>
~1 nM

$$$$
>  <Binder>
IL23R#19-35GS-CD4#8 (bispecific antibody, also called BI#42; T023200042) EVQLVESGGGLVQPGGSLTLSCVASGRTFSTDVMGWFRQAPGKEREFVAAHRTSGISTVYAASVKGRFTISRDNAKNTVYLGMKSLKPEDTAVYVCAAGSDASGGYDYWGQGTLVTVSSGGGGSGGGGSGGGGSGGGGSGGGGSGGGGSGGGGSEVQLVESGGGSVQPGGSLTLSCGTSGRTFNVMGWFRQAPGKEREFVAAVRWSSTGIYYTQYADSVKSRFTISRDNAKNTVYLEMNSLKPEDTAVYYCAADTYNSNPARWDGYDFRGQGTLVTVSS

>  <Measured Result>
~1 nM

$$$$
>  <Binder>
CD4#8-35GS-IL23R#20 (bispecific antibody, also called BI#44; T023200044) EVQLVESGGGSVQPGGSLTLSCGTSGRTFNVMGWFRQAPGKEREFVAAVRWSSTGIYYTQYADSVKSRFTISRDNAKNTVYLEMNSLKPEDTAVYYCAADTYNSNPARWDGYDFRGQGTLVTVSSGGGGSGGGGSGGGGSGGGGSGGGGSGGGGSGGGGSEVQLVESGGGLVQAGGSLRLSCAASGRTFSSYAMGWFRQAPGKDREFVAAISWIGESTYYADSVKGRFTISRDNAKNTVYLRMNSLKPEDTAVYYCAADLYYTAYVAAADEYDYWGQGTLVTVSS

>  <Measured Result>
~1 nM

$$$$

Reference for the values: patent US20160251440A1
